Assay: small-molecule binders of probe aInhba, primary screen, biochemical, small-molecule microarray, 635/667 nm fluorescence (AID 1148);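 also: score merges 667nm spot fluorescence with signal-to-noise for antibody binding to printed compounds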
Details: higher = more signal
Recorded composite z-score for the following compounds
Response field accepts a number only; no unit should be typed.

Look over these answered cases.
CCOC(=O)c1ccc(NC(=O)O[C@H]2[C@H](OC(=O)Nc3ccc4c(c3)OCO4)[C@H](OC(=O)Nc3ccc4c(c3)OCO4)[C@@H](OC)O[C@@H]2CO)cc1; 0.386
CCCCO[C@H]1C[C@H]2C(I)=C[C@@H]1C(=O)[C@]21CO1; -0.161
COc1ccc(NC(=O)O[C@H]2[C@H](OC(=O)Nc3ccccc3)[C@H](OC(=O)Nc3ccccc3)[C@@H](OC)O[C@@H]2CO)cc1; 0.398

I'd like to know its composite z-score. The compound in question is O=C(NCC(F)(F)F)[C@@H]1c2ccccc2C(=O)N(Cc2cc(F)cc(C(F)(F)F)c2)[C@H]1c1ccc(CO)cc1
-0.128

I'd like to know its composite z-score. The compound in question is [N-]=[N+]=Nc1ccccc1[C@H]1OC(c2ccc(OCCCO)cc2)=N[C@@]1(Cc1ccccc1)C(=O)N1CCCCC1
0.395

I'd like to know its composite z-score. The compound in question is COc1ccc([Si](C)(C)[C@H]2[C@H](CCn3cc([C@H](O)c4ccccc4)nn3)O[C@@]3(C(=O)N(Cc4ccc(N5C(=O)c6cccc7cccc5c67)cc4)c4ccccc43)[C@@H]2C)cc1
-0.0791

I'd like to know its composite z-score. The compound in question is NC(N)=NCCCn1cc(CNC(=O)[C@@H](N)Cc2ccccc2)nn1
0.017

I'd like to know its composite z-score. The compound in question is Cc1ccc(S[C@]2(C(=O)O)CC(=O)N(Cc3cc(C(F)(F)F)cc(C(F)(F)F)c3)[C@@H]2c2ccc(CO)cc2)cc1
-0.128

I'd like to know its composite z-score. The compound in question is COC(=O)[C@@]1(Cc2ccccc2N=[N+]=[N-])N=C(c2ccc(OCCCO)cc2)O[C@H]1c1ccccc1N=[N+]=[N-]
0.221

I'd like to know its composite z-score. The compound in question is COc1ccc([Si](C)(C)[C@@H]2[C@@H](CC(=O)N3Cc4ccccc4C[C@H]3CO)O[C@]3(C(=O)N(Cc4cccc(N5C(=O)c6cccc7cccc5c67)c4)c4ccccc43)[C@H]2C)cc1
0.0091

I'd like to know its composite z-score. The compound in question is [N-]=[N+]=NCc1ccccc1C[C@@]1(C(=O)N2CCOCC2)N=C(c2ccc(OCCCO)cc2)O[C@@H]1c1ccccc1
0.0589

I'd like to know its composite z-score. The compound in question is CC(CO)N1C(=O)[C@@H]2[C@H]3C(=O)OCC=C[C@H]3OC23C=CCN(Cc2ccccc2)C(=O)[C@@H]13 (stereo partly drawn)
-0.21

I'd like to know its composite z-score. The compound in question is COc1ccc([Si](C)(C)[C@H]2[C@H](CC(=O)N(CCO)Cc3ccccc3)O[C@@]3(C(=O)N(Cc4cccc(N5CCOC5=O)c4)c4ccccc43)[C@@H]2C)cc1
-0.0523

I'd like to know its composite z-score. The compound in question is COc1cc(CO)cc(I)c1O[C@H]1C=C(C(=O)NCCO)C[C@@H](NCc2ccc(F)cc2)[C@@H]1O
-0.101

I'd like to know its composite z-score. The compound in question is COc1ccc(CN(C2=CC[C@@]3(C(N)=O)C(=O)C(Cl)=C(Cl)C(=O)[C@@]3(C#N)C2)S(=O)(=O)c2ccc(Br)cc2)cc1
-0.0006

I'd like to know its composite z-score. The compound in question is C[C@]1(C(=O)NC2CC2)c2ccccc2C(=O)N(Cc2ccccc2)[C@H]1c1ccc(CO)cc1
0.0028

I'd like to know its composite z-score. The compound in question is COc1ccc(C#Cc2ccc3c(c2)[C@]2(C(=O)N3)[C@H](c3ccc(O)cc3)N3[C@H](c4ccccc4)[C@H](c4ccccc4)OC(=O)[C@H]3[C@@H]2C(=O)O)cc1
0.11

I'd like to know its composite z-score. The compound in question is CC(C)N1C(=O)c2ccccc2[C@@H](C(=O)NC2CC2)[C@@H]1c1ccc(CO)cc1
-0.0059

I'd like to know its composite z-score. The compound in question is C=C(C)C1CCC(C(O)C2C=CC3C(=O)N(C)C(=O)C3N2N2CCCCC2)CC1 (stereo not drawn)
0.143

I'd like to know its composite z-score. The compound in question is C=CCC(OC(C)=O)[C@@H]1[C@@H](N(Cc2cccc3ccccc23)C(=O)Cc2ccc(F)cc2)c2cc(OCCCO)ccc2N1C(=O)c1ccc2ccccc2n1 (stereo partly drawn)
0.0614

I'd like to know its composite z-score. The compound in question is COC1OC[C@]2(C)[C@H]3C4=C(CN2C(=O)OC(C)(C)C)[C@H](C)C(CO)C(CO)C4CC[C@@H]13 (stereo partly drawn)
0.109
